FYI, the data here is from PubChem BioAssay (NCI).

System: SK-MEL-5 melanoma
Experiment: NCI-60 one-dose screen, 48 h (100 = growth as untreated, 0 = no growth, -100 = all killed)
Details: 10 µM unless noted
Description: Growth inhibition of the SK-MEL-5 human tumor cell line is measured as a screen for anti-cancer activity. Cells are grown in 96 well plates and exposed to the test compound for 48 hours. Compounds are tested at a single concentration, which is 10^-5 M for most compounds. The reported endpoint is percent growth (GI% or GIPRCNT), where numbers from 0 - 100% represent growth inhibition, and numbers from -100% - 0 represent cell death. For example, a value of 40 represents 60% growth inhibition. […]
About 83,000 compounds went through this panel and 20% of them were active in at least one assay; those are over-represented in the sample as a whole. The source made the active and inactive calls. The calls were made as follows: active = growth percent below 10; inactive = the rest.
Measured growth of individual entries

# Compound, Measured Quantity, Measurement
records = [
    ("CCO/C=N/C1=C(C#N)C(c2ccc(Cl)cc2)c2c(c3ccccc3n(C)c2=O)O1 (stereo not given)", "growth", "74.2% (inactive)"),
    ("COC(=O)c1nc(-c2ccccc2)oc1S(=O)(=O)N1CCN(c2cccc(Cl)c2)CC1", "growth", "99.3% (inactive)"),
    ("Clc1ccc(-c2nc3ccccc3s2)cc1Cl", "growth", "89.8% (inactive)"),
    ("O=C(c1ccccc1)C1OC1c1ccc([N+](=O)[O-])cc1 (stereo not given)", "growth", "52.7% (inactive)"),
    ("CCCCCCCCCCCCCCCCNC(=O)OC(C)C", "growth", "91% (inactive)"),
]

Tested on SK-MEL-5 melanoma: COc1cc2c(cc1OCCCN1CCN(CCCn3c4ccccc4c4ccccc43)CC1)N=C[C@@H]1CCCN1C2=O . Observed growth: -100% (active)

Known value: SK-MEL-5 melanoma growth of the compound COc1cc(-c2nn(C(=O)NS(=O)(=O)c3ccccc3)cc2-c2ccncc2)ccc1Cl equals 95.6% (inactive)

Param item: COc1cc(Cn2cc3c(c2)-c2oncc2CC3)cc(OC)c1OC ; param system: SK-MEL-5 melanoma; output growth: -36% (active)

Known value: SK-MEL-5 melanoma growth of the compound Cc1ccc(-c2cc3nc(C(Cl)Cl)nc(-c4cccnc4)n3n2)cc1 equals 44.8% (inactive)

The compound COc1cc(-c2nn(-c3cccc(NC(=O)Nc4ccc(Cl)c(Cl)c4)c3)cc2-c2ccncc2)ccc1Cl , when measured on SK-MEL-5 melanoma, yielded growth of -80% (active)

====

system: SW-620 colon; assay: NCI-60 one-dose screen, 48 h (100 = growth as untreated, 0 = no growth, -100 = all killed); details: 10 µM unless noted
The panel holds about 83,000 compounds, 20% with a hit somewhere; the sample as a whole holds those more often.
Measured Quantity: growth (%)
Give the value in % but do not write % after it.

Example compounds with recorded growth:
# Compound, Tested On, Result Units, Measurement
rows = [
    ("COc1cc(C2CC(c3ccc4c(c3)OCO4)=NN2C(C)=O)cc(OC)c1OC (centres undefined)", "SW-620 colon", "%", 26.6),
    ("COc1cc(-c2nc(-c3nc4ccc(Cl)cc4[nH]3)cc3c2[nH]c2ccccc23)cc(OC)c1OC", "SW-620 colon", "%", 96.2),
    ("COc1cccc(-c2nc3sccn3c2-c2ccnc(NCCCNS(=O)(=O)c3ccc(C(F)(F)F)cc3)c2)c1", "SW-620 colon", "%", 68.5),
    ("N=C(N)c1ccc(-c2ccc(-c3ccc4ccccc4c3)s2)cc1", "SW-620 colon", "%", 19.3),
    ("O=[N+]([O-])c1cccc(-c2nc3sccn3c2-c2ccnc(NCCCNS(=O)(=O)c3ccc(C(F)(F)F)cc3)n2)c1", "SW-620 colon", "%", 66.6),
    ("Cc1csc(NC(c2ccccc2)c2c(C)nc3ccccn23)n1 (centres undefined)", "SW-620 colon", "%", 96.3),
]

Entry under test: O=S(=O)(NCCNc1nccc(-c2c(-c3cccc(O)c3)nc3sccn23)n1)c1ccc(F)cc1 . Its growth was 103

For this compound ( CN(CCCCCl)P(=O)(OCc1ccc([N+](=O)[O-])o1)C(F)(F)C[C@H](NC(=O)CNC(=O)c1ccc(N=[N+]=[N-])cc1)C(=O)NCCc1ccc(O)cc1 (some centres undefined) ), measured growth is 37.6

The value of growth measured for the compound COc1ccc(-c2ccc(-c3ccc(-c4ccc(C(=N)N)cc4)s3)s2)cc1OC turned out to be -40.8
